tested on: PXR homodimer (NR concentration 270 nM); assay: PBM binding z-score (relative to random genomic background probes); higher = stronger binding; sequences stand for … in GC…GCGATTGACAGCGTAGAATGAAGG
assay endpoint: PBM binding z-score
Write the value as a bare number.

Past entries and their recorded results:
residue string	target system	assay endpoint	recorded measurement
AGTCAAAGTTCACTAGGTAAAGTAAGATTCAGCT	PXR homodimer (NR concentration 270 nM)	PBM binding z-score	2.63
ACAGACAGCTGATGAAGGTAACTCAGGCTATCAT	PXR homodimer (NR concentration 270 nM)	PBM binding z-score	-0.158
CGAACTAGGGCAGAACAGGACAGTGAAGGATGAT	PXR homodimer (NR concentration 270 nM)	PBM binding z-score	-0.0295
ATCTCTCGGTAAAGATAGTTCAGTGAATGCAAAT	PXR homodimer (NR concentration 270 nM)	PBM binding z-score	0.572
CCTCGGAGGACAGAAGGTCAGAGATGTCCGCTTT	PXR homodimer (NR concentration 270 nM)	PBM binding z-score	0.164

Please give the measured PBM binding z-score for this sequence: ATATGTAGGTTAGATCCGGGTCATTCAGGCTATG
1.25

Query: PBM binding z-score; subject: CGTCGAAGTTCAACTAAGGTAACGTAAAGCACGC
2.7

Quick one: PBM binding z-score for GCTATTAGTTGAAAGCGCAACCGAATGATTCTCG ?
-0.357

Given TTTTGTAGATCAGCAGGTTAAGAAAGCTGGCCAA , state its recorded PBM binding z-score.
-0.117

Please give the measured PBM binding z-score for this sequence: CGAACTAGGTCATTGACAGGACAGGGAATAGTAA
0.107

Name the recorded PBM binding z-score for AGAATGAGGTTAAGATCAGAGAAACAGAATACAT .
0.611

###

tested on: LXRb:RXRa (NR concentration 270 nM, RXRa partner concentration 90 nM); test: PBM binding z-score (relative to random genomic background probes); higher = stronger binding; sequences stand for … in GC…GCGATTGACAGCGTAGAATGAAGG
// class assignment uses PBM binding z-score with these ranges: zone 1 = under 0.6, zone 2 = from 0.6 up to 2, zone 3 = 2 and over

residue string	category
AGAATGAGGTTATTAAGATCAAGGAATTGCGGTC	zone 2
TTACCAAGGTGAGCTGAGGTAGTTGATCCAACTC	zone 1

Sort TCTGCTAGGTCTACGATGGTCAGCTAATCTGCTA into one of the categories.
zone 1

Exam item: assign TCTGCTAGGTCAACGATGGTCAGCTATTCTGCTA to the correct category.
zone 2

For the record AGAACGACGGCAATGAGTTGATAGCACGGGTGGC , report the class its PBM binding z-score corresponds to.
zone 1

Which PBM binding z-score category applies to CATACAGGTTCAGCTAGGCCAGAGTAGGGACGGC here?
zone 1

Input CAAACTAGGACACAGAGGTCAAAGTCCGTGCGTA ; output its category
zone 3

Please indicate the class for TTACCAAGGTTAGCTGAGGTCGTTGATCCAACTC based on its PBM binding z-score.
zone 3

Please classify: CATACAGGGTCAGCTAAGCCAGAGTAGGGACGGC
zone 3

Exercise: read the entry ATCTTTAGGTAACCAAGTTCAGTGAATGCCGAAC and state which class it falls under.
zone 2

Which class is correct for the following sequence? AGTCAAAGTTCTCTAGGTAACGTAAGATTCAGCT
zone 1

Which bin should I file TCTAGCAGGCCAGAGGGTCACTGAAGAGGTACGG under?
zone 2

Hey, which category is CCTGCTAGGTGATGGTCAGCTAATCTACAGTATG in, do you know?
zone 1

Class? Entry: ATCTCTTGGTAACAAGTTCAGTGAAAGAGAGGAC
zone 1

Hello team, could you let me know which band the following sequence falls into: CTACCAAGTTGAACAAGGTCGTTGATTACTATTC
zone 2

Where would CGAACGAGGGCATGAGTTGCTAGCAAATGCCGAT land among the classes by reported PBM binding z-score?
zone 1

Lab note: which band did ATCTCTAGGTAAAAGGTCAGTGAATCCCGAGGAT land in?
zone 3

Band for the recorded PBM binding z-score of GCTTGTAGATCAAGGTTAAGACAGACTAAGCTAA ?
zone 1

Consider CTACCAAGGTGAACAAGGTCGTTGCTTACTATTC . To which PBM binding z-score class does it belong?
zone 3

Assign a category based on measured PBM binding z-score for CCGACTGGGGCAAAAGGTTACCATAAGCCAGCCC and give only the class name.
zone 2

Please let me know in which category the item ATCGAAAGGTCGAAGGTGAGTATTCCCACCCGAA belongs.
zone 3
